- ASSAY CONTEXT: in methanol, 303.15 K
ENDPOINT: solubility (mole fraction)
The answer should be a number; do not append a unit.

*Q* I would be grateful if you could share the reported solubility (mole fraction) for `COC(=O)/C=C(\C)N[C@@H](C(=O)[O-])c1ccc(O)cc1.[K+]` .
*A* 0.00396

----------
- ASSAY CONTEXT: in isopropanol, 293.25 K
ENDPOINT: solubility (mole fraction)
Give the value as a plain number.

*Q* For `COC(=O)/C=C(\C)N[C@@H](C(=O)[O-])c1ccc(O)cc1.[K+]` , what is its reported solubility (mole fraction)?
*A* 5.74e-05
